Task for the reader: assign each of the following binders its reported OD450 at 2.67 nM.
- assayed-system: biotinylated labeled human GPC3 protein (produced in-house) (human, UniProt P51654 25-559, limits assumed, biotinylated (Dojindo, Cat. No. LK03); sites not stated)
- assay-summary: ELISA, biotinylated human GPC3 protein
Respond with the bare value in OD450.

GET /values?readout=OD450 at 2.67 nM&item= hAb006LH1L1 (antibody, human IgG1, V domains shown, Humanized F3.38.7; VH H1 + VL L1; expressed as human IgG1) VH: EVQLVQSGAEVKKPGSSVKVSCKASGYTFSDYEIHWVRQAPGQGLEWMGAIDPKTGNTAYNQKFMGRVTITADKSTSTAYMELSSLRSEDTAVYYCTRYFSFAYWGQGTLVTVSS VL: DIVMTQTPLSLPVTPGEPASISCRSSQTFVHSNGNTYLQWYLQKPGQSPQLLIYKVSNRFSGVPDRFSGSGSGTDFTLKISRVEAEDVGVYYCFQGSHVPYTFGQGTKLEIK
2.36

Reported OD450 at 2.67 nM, binder hAb007LH2L1 (antibody, human IgG1, V domains shown, Humanized F3.81.19; VH H2 + VL L1; expressed as human IgG1) VH: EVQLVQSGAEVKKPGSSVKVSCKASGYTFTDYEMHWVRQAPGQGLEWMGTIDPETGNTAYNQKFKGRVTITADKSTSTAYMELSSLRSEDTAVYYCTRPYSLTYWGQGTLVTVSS VL: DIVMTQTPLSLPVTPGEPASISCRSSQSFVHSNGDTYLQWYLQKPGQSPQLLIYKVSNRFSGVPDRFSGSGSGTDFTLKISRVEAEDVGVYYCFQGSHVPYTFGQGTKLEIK : ____
2.26
